These data points were gathered from ChEMBL document CHEMBL1153653.

targetOrTestSystem: Type-1 angiotensin II receptor (Oryctolagus cuniculus, UniProt P34976)
Sequence (P34976 whole entry): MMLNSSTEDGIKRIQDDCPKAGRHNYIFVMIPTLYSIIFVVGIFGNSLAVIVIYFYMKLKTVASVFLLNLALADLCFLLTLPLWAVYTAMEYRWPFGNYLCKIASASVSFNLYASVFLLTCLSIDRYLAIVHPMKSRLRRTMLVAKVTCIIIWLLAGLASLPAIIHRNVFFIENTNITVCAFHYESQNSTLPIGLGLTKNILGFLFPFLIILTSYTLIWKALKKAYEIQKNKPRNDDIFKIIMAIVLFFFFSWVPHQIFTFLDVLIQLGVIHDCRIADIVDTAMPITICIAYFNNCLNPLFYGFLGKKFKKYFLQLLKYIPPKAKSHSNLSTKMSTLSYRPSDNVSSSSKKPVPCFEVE
testDetails: In vitro binding affinity determined by its ability to displace the specific binding ligand [125I]-Sar1, Ile8-AII from Angiotensin II receptor, type 1 in rabbit aorta membranes
pIC50: −log10 of the molar value.
observable: pIC50

>>> reportedvalue("CCCCc1nc2cc(NC(=O)N(c3ccccc3)c3ccccc3)c(C)nc2n1Cc1ccc(-c2ccccc2-c2nn[nH]n2)cc1")
9.22
>>> reportedvalue("CCCCCN(C(=O)c1ccccc1)c1ccc2nc(CCC)n(Cc3ccc(-c4ccccc4-c4nn[nH]n4)cc3)c(=O)c2c1")
9.00
>>> reportedvalue("CCCCCC(=O)NS(=O)(=O)c1ccccc1-c1ccc(Cn2c(CCCC)nc3cc(NC(=O)CCCC)cnc32)cc1")
9.43
>>> reportedvalue("CCc1nc2c(C)cc(C)nc2n1Cc1ccc(-c2ccccc2S(=O)(=O)NC(=O)CCC2CCCC2)cc1")
10.00
>>> reportedvalue("CCCCC(=O)Nc1cc2nc(CCCC)n(Cc3ccc(-c4ccccc4S(=O)(=O)NC(=O)CCC4CCCC4)cc3)c2nc1C")
10.00
>>> reportedvalue("CCCCOC(=O)NS(=O)(=O)c1ccccc1-c1ccc(Cn2c(CCC)nc3c(C)c(NC(=O)CCC)cnc32)cc1")
9.29
>>> reportedvalue("CCCC(=O)Nc1c(C)nc2c(nc(CCC)n2Cc2ccc(-c3ccccc3S(=O)(=O)NC(=O)CCC3CCCC3)cc2)c1C")
9.59
>>> reportedvalue("CCCC(=O)Nc1cnc2c(nc(CCC)n2Cc2ccc(-c3ccccc3S(=O)(=O)NC(=O)OCc3ccccc3)cc2)c1C")
9.48
